Data origin, for the record: patent US10865208B2

system: recombinant human His-ATG7 enzyme (Homo sapiens (Human))
assay-comment: ATG7 Enzyme Assay (HTRF/FRET, ATG3-GST and Flag-Gabarap)
Type: biochemical
test-parameters: Concentration 0.111 μM; read-out: Percent Inhibition
Some compounds, each annotated with its measured inhibition at 0.111 µM.

Here's what some known entries look like.
# molecular-string, result
rows = [
    ("Nc1ncnc2c1c(SCc1cc3ccccc3s1)nn2[C@H]1C[C@H](O)[C@@H](COS(N)(=O)=O)O1", "50%"),
    ("Nc1ncnc2c1c(C(F)(F)F)nn2[C@H]1C[C@H](O)[C@H](COS(N)(=O)=O)O1", "42%"),
    ("CN1C(=O)Cc2cc(Sc3nn([C@H]4C[C@H](O)[C@@H](COS(N)(=O)=O)O4)c4ncnc(N)c34)ccc21", "56%"),
    ("Nc1ncnc2c1c(Sc1cccc(C(F)(F)F)c1)nn2[C@@H]1O[C@H](COS(N)(=O)=O)[C@@H](O)[C@@H]1F", "56%"),
    ("Nc1ncnc2c1c(SCc1ccncc1)nn2[C@@H]1O[C@H](COS(N)(=O)=O)[C@@H](O)[C@@H]1F", "52%"),
    ("Nc1ncnc2c1c(Sc1ccncc1)nn2[C@@H]1O[C@H](COS(N)(=O)=O)[C@@H](O)[C@@H]1F", "46%"),
]

### Prompt Which value of inhibition at 0.111 µM has been reported for Nc1ncnc2c1c(SCc1cccnn1)nn2[C@@H]1O[C@H](COS(N)(=O)=O)[C@@H](O)[C@@H]1F in the records?
### Response 61%

### Prompt Which value of inhibition at 0.111 µM has been reported for Nc1ncnc2c1c(Sc1ccc3ccccc3n1)nn2[C@H]1C[C@H](O)[C@@H](COS(N)(=O)=O)O1 in the records?
### Response 28%

====

system: recombinant human His-ATG7 enzyme (Homo sapiens (Human), UniProt O95352)
Sequence (O95352 whole entry): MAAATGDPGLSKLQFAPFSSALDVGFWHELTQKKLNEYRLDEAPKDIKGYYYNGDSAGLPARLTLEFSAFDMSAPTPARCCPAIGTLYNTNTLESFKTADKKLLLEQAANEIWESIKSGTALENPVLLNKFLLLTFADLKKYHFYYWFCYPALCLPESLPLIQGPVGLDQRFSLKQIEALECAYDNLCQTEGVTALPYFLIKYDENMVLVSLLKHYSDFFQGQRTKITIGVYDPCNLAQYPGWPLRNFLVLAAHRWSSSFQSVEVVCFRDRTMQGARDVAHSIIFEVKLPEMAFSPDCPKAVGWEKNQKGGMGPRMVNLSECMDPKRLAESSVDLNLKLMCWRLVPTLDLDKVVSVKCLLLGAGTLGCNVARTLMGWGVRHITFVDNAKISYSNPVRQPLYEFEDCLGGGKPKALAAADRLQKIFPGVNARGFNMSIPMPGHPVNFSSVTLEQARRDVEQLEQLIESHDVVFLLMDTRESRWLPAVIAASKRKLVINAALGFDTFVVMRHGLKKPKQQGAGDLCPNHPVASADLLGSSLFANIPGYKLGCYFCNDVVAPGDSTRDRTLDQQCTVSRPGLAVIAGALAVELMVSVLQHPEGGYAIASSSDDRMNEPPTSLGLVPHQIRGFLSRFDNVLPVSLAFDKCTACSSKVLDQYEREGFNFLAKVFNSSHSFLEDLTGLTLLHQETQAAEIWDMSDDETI
assay-comment: ATG7 Enzyme Assay (HTRF/FRET, ATG3-GST and Flag-Gabarap)
pIC50: −log10 of the molar value.
Some compounds, each annotated with its measured pIC50.

Here's what some known entries look like.
# compound, result
measured = [
    ("CC(C)Sc1nn([C@@H]2O[C@H](COS(N)(=O)=O)[C@@H](O)[C@H]2O)c2ncnc(N)c12 [Compound I-58]", "> 7.70"),
    ("Nc1ncnc2c1c(SCc1ccc(C(F)(F)F)cc1)nn2[C@@H]1O[C@H](COS(N)(=O)=O)[C@@H](O)[C@H]1O [Compound I-33]", "7.30 to 7.70"),
    ("Cc1occc1Sc1nn([C@@H]2O[C@H](COS(N)(=O)=O)[C@@H](O)[C@H]2O)c2ncnc(N)c12 [Compound I-81]", "7.00 to 7.30"),
    ("Nc1ncnc2c1c(COCc1ccccc1)nn2[C@@H]1O[C@H](COS(N)(=O)=O)[C@@H](O)[C@H]1O [Compound I-4]", "6.30 to 7.00"),
]

Proceeding to the next compound to report its pIC50.
### Prompt For the record Nc1ncnc2c1c(Sc1ccc([N+](=O)[O-])cn1)nn2[C@@H]1O[C@H](COS(N)(=O)=O)[C@@H](O)[C@@H]1F [Compound I-111] , what value of pIC50 is listed for recombinant human His-ATG7 enzyme (Homo sapiens (Human), UniProt O95352)?
### Response 7.30 to 7.70
